From: patent US10570131B2

Please provide measured pIC50 for the entries that follow.
target: OXA-11 (Pseudomonas aeruginosa); assay: β-lactamase inhibitory activity, IC50 (nitrocefin hydrolysis)
Sequence (Q06778 21-266): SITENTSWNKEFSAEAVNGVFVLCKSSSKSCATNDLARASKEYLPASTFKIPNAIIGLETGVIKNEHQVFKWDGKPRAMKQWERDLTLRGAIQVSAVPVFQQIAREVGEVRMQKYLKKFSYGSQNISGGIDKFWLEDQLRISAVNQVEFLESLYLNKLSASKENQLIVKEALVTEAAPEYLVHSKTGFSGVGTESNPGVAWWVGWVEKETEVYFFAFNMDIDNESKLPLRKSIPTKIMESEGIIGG
The scale used: pIC50 is minus the common logarithm of the concentration in molar units.

Field: pIC50 (OXA-11 (Pseudomonas aeruginosa)). Entry: CNC(=O)CON=C1C[C@@H](C(=O)OC)N2C[C@@H]1N(OS(=O)(=O)[O-])C2=O.[Na+] (mixture of isomers) [Example 1, sulfate] 8.39

Entry NC[C@@H]1CC(=O)[C@@H]2CN1C(=O)N2OS(=O)(=O)O , system OXA-11 (Pseudomonas aeruginosa): what pIC50 was measured? 5.80

For the record NC[C@@H]1CC(=NOCC(N)=O)[C@@H]2CN1C(=O)N2OS(=O)(=O)O (mixture of isomers) , what value of pIC50 is listed for OXA-11 (Pseudomonas aeruginosa)? 6.37

What is its pIC50 for OXA-11 (Pseudomonas aeruginosa)? Entry: CNC(=O)CON=C1C[C@@H](C(N)=O)N2C[C@@H]1N(OS(=O)(=O)[O-])C2=O.[Na+] (mixture of isomers) [Example 2, sulfate] 8.17

Lab note: need pIC50 with OXA-11 (Pseudomonas aeruginosa) for entry NC(=O)CON=C1C[C@@H](C(N)=O)N2C[C@@H]1N(OS(=O)(=O)[O-])C2=O.[Na+] (mixture of isomers) [Example 3, sulfate] , please look it up. 7.32

* * *

tested on: E. coli 131119; experiment: microbe, parasite or virus in culture; assay type: cell-based; conditions: Escherichia coli, 131119, read-out: MIC compounds of the invention alone
Hi there, I'd appreciate the recorded MIC for every entry that follows.
Quick note: give the figure in µg/mL, leave out the unit.

// query MIC value for entry CNC(=O)CON=C1C[C@@H](C(N)=O)N2C[C@@H]1N(OS(=O)(=O)[O-])C2=O.[Na+] (mixture of isomers) [Example 2] 8

Would you mind telling me what MIC value was observed for NC[C@@H]1CC(=O)[C@@H]2CN1C(=O)N2OS(=O)(=O)O [Example 6] ? 2

* * *

system: E. cloacae P99; assay: MIC of ceftazidime alone and in combination with compounds (synergy), broth microdilution; type: cell-based; details: MIC of ceftazidime with compound fixed at 4 μg/mL; strain P99 (AmpC)
OBSERVATION_TYPE: MIC, combination of CAZ and compounds of the invention at 4 μg/mL (µg/mL)
Numbers only here, please. The scale is µg/mL.

Please provide the recorded MIC, combination of CAZ and compounds of the invention at 4 μg/mL for NCCON=C1C[C@@H](C(N)=O)N2C[C@@H]1N(OS(=O)(=O)[O-])C2=O.O=C(O)C(F)(F)F.[Na+] , tested on E. cloacae P99. 0.25

Provide the documented MIC, combination of CAZ and compounds of the invention at 4 μg/mL with E. cloacae P99 as the system for CNC(=O)CON=C1C[C@@H](C(N)=O)N2C[C@@H]1N(OS(=O)(=O)[O-])C2=O.[Na+] (mixture of isomers) 4

Find MIC, combination of CAZ and compounds of the invention at 4 μg/mL (E. cloacae P99) for the entry CNC(=O)CON=C1C[C@@H](C(=O)OC)N2C[C@@H]1N(OS(=O)(=O)[O-])C2=O.[Na+] (mixture of isomers) 64

Quick check: MIC, combination of CAZ and compounds of the invention at 4 μg/mL on E. cloacae P99, item NC(=O)CON=C1C[C@@H](C(N)=O)N2C[C@@H]1N(OS(=O)(=O)[O-])C2=O.[Na+] (mixture of isomers) ? 32
